Cited source for all entries: paper PMC9572513

Documented IC50 across a set of molecules
Test system: CRL1790 non-malignant colon cells
procedure-summary: Cytotoxicity against CRL1790 non-malignant colon cells
Format: cell-based
experimental-context: Homo sapiens, 48 h
Method: The culture medium was supplemented with 10% heat-inactivated fetal bovine serum (FBS) and 1% penicillin–streptomycin antibiotics. The time of the bioassays was 48 h. The determinations were undertaken in triplicate on three different occasions.
reported-metric: IC50 (µM)

molecule	val
COc1ccc(C=C2CNCC(=Cc3ccc(O)c(CN(C)C)c3)C2=O)cc1OC.Cl.Cl [Compound 2a]	17.5
CN1CCN(Cc2cc(/C=C3\CNC/C(=C\c4ccc(F)cc4)C3=O)ccc2O)CC1 [Compound 3b]	12.6
COc1ccc(/C=C2\CNC/C(=C\c3ccc(O)c(CN4CCCC4)c3)C2=O)cc1OC [Compound 2c]	26.4
CN1CCN(Cc2cc(/C=C3\CNC/C(=C\c4ccccc4)C3=O)ccc2O)CC1 [Compound 3a]	21.7
COc1ccc(/C=C2\CNC/C(=C\c3ccc(O)c(CN4CCN(C)CC4)c3)C2=O)cc1OC [Compound 2f]	12.7
COc1ccc(/C=C2\CNC/C(=C\c3ccc(O)c(CN4CCCCC4)c3)C2=O)cc1OC [Compound 2d]	23.5
Cc1ccc(/C=C2\CNC/C(=C\c3ccc(O)c(CN4CCN(C)CC4)c3)C2=O)cc1 [Compound 3d]	22.6
COc1ccc(/C=C2\CNC/C(=C\c3ccc(O)c(CN4CCOCC4)c3)C2=O)cc1OC [Compound 2e]	27.4
CN1CCN(Cc2cc(/C=C3\CNC/C(=C\c4ccc([N+](=O)[O-])cc4)C3=O)ccc2O)CC1 [Compound 3e]	15.8
O=c1[nH]cc(F)c(=O)[nH]1 [Compound 5-FU, 5-fluorouracil, reference compound]	17.6
COc1ccc(/C=C2\CNC/C(=C\c3ccc(O)c(CN4CCN(C)CC4)c3)C2=O)cc1 [Compound 3c]	13.2
CCN(CC)Cc1cc(C=C2CNCC(=Cc3ccc(OC)c(OC)c3)C2=O)ccc1O.Cl.Cl [Compound 2b]	15.2

---

System: Ca9-22, HSC-2, HSC-3, and HSC-4 squamous cell carcinoma cell lines
procedure-summary: Average over Ca9-22, HSC-2, HSC-3 and HSC-4 OSCC cell lines
Assay type: cell-based, human
experimental-context: average of four OSCC cell lines; read-out: Average CC50
Documented log10(CC50) across a set of molecules
reported-metric: log10(CC50) (log10 of the value in µM)

molecule	log10(CC50)
[NH2][Pt]([NH2])([Cl])[Cl] [CDDP, cisplatin, reference compound]	2.12
CN1CCN(Cc2cc(/C=C3\CNC/C(=C\c4ccccc4)C3=O)ccc2O)CC1	-0.24
CN1CCN(Cc2cc(/C=C3\CNC/C(=C\c4ccc(F)cc4)C3=O)ccc2O)CC1	-0.05
CCN(CC)Cc1cc(C=C2CNCC(=Cc3ccc(OC)c(OC)c3)C2=O)ccc1O.Cl.Cl	-0.05
COc1ccc(/C=C2\CNC/C(=C\c3ccc(O)c(CN4CCCCC4)c3)C2=O)cc1OC	-0.27
CN1CCN(Cc2cc(/C=C3\CNC/C(=C\c4ccc([N+](=O)[O-])cc4)C3=O)ccc2O)CC1	-0.30

---

Tested on: HSC-3 squamous cell carcinoma cells
procedure-summary: MTT cytotoxicity against HSC-3 squamous cell carcinoma
Assay type: cell-based, human
experimental-context: average CC50 HGF/HPLF/HPC divided by CC50 HSC-3
Documented HSC-3 SI across a set of compounds

compound	tested-target	sign-qualifier	HSC-3 SI
[NH2][Pt]([NH2])([Cl])[Cl] [CDDP, cisplatin, reference compound]	HSC-3 squamous cell carcinoma cells	>	21.3
COc1ccc(C=C2CNCC(=Cc3ccc(O)c(CN(C)C)c3)C2=O)cc1OC.Cl.Cl [Compound 2a]	HSC-3 squamous cell carcinoma cells	=	7.29
O=c1[nH]cc(F)c(=O)[nH]1 [Compound 5-FU, 5-fluorouracil, reference compound]	HSC-3 squamous cell carcinoma cells	>	2.22
CN1CCN(Cc2cc(/C=C3\CNC/C(=C\c4ccccc4)C3=O)ccc2O)CC1 [Compound 3a]	HSC-3 squamous cell carcinoma cells	=	11.9
COc1ccc(/C=C2\CNC/C(=C\c3ccc(O)c(CN4CCN(C)CC4)c3)C2=O)cc1OC [Compound 2f]	HSC-3 squamous cell carcinoma cells	=	6.92
CN1CCN(Cc2cc(/C=C3\CNC/C(=C\c4ccc([N+](=O)[O-])cc4)C3=O)ccc2O)CC1 [Compound 3e]	HSC-3 squamous cell carcinoma cells	=	12.1
COc1ccc(/C=C2\CNC/C(=C\c3ccc(O)c(CN4CCN(C)CC4)c3)C2=O)cc1 [Compound 3c]	HSC-3 squamous cell carcinoma cells	=	5.24
CCN(CC)Cc1cc(C=C2CNCC(=Cc3ccc(OC)c(OC)c3)C2=O)ccc1O.Cl.Cl [Compound 2b]	HSC-3 squamous cell carcinoma cells	=	9.25
N[C@@H](Cc1ccc(N(CCCl)CCCl)cc1)C(=O)O [MPN, melphalan, reference compound]	HSC-3 squamous cell carcinoma cells	>	9.62
CN1CCN(Cc2cc(/C=C3\CNC/C(=C\c4ccc(F)cc4)C3=O)ccc2O)CC1 [Compound 3b]	HSC-3 squamous cell carcinoma cells	=	10.6
COc1ccc(/C=C2\CNC/C(=C\c3ccc(O)c(CN4CCCCC4)c3)C2=O)cc1OC [Compound 2d]	HSC-3 squamous cell carcinoma cells	<	9.67
COc1ccc(/C=C2\CNC/C(=C\c3ccc(O)c(CN4CCOCC4)c3)C2=O)cc1OC [Compound 2e]	HSC-3 squamous cell carcinoma cells	>	2.73
Cc1ccc(/C=C2\CNC/C(=C\c3ccc(O)c(CN4CCN(C)CC4)c3)C2=O)cc1 [Compound 3d]	HSC-3 squamous cell carcinoma cells	=	5.34
COc1cccc2c1C(=O)c1c(O)c3c(c(O)c1C2=O)C[C@@](O)(C(=O)CO)C[C@@H]3O[C@H]1C[C@H](N)[C@H](O)[C@H](C)O1 [DXR, doxorubicin, reference compound]	HSC-3 squamous cell carcinoma cells	>	41.7
COc1ccc(/C=C2\CNC/C(=C\c3ccc(O)c(CN4CCCC4)c3)C2=O)cc1OC [Compound 2c]	HSC-3 squamous cell carcinoma cells	=	4.58
